Biological target: fibrin (in vitro human plasma clot) (Homo sapiens, UniProt P02671+P02675+P02679)
Construct: about 400 μl of human plasma containing the radiolabelled substrate; from tissue; host or cells: human plasma, clotted in vitro with added thrombin and calcium chloride
Sequence (P02671 20-644 isoform P02671-2 limits assumed): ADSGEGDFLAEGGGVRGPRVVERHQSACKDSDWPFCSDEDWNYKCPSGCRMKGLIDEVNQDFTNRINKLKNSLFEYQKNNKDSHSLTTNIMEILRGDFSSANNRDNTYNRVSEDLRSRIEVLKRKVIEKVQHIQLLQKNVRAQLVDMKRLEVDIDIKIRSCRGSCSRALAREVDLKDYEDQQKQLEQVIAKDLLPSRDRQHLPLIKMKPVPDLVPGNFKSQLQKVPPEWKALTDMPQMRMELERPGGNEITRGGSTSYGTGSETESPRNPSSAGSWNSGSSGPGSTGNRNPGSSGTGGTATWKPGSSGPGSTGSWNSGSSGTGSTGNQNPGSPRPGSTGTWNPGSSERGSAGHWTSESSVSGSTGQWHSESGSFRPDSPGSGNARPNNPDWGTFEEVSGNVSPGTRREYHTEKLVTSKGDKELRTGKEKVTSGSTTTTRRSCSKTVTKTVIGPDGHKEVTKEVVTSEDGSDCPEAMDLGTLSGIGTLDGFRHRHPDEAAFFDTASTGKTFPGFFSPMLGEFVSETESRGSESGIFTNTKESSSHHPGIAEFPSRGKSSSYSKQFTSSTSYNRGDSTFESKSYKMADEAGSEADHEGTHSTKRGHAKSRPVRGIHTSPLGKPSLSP
Sequence (P02675 45-491 limits assumed): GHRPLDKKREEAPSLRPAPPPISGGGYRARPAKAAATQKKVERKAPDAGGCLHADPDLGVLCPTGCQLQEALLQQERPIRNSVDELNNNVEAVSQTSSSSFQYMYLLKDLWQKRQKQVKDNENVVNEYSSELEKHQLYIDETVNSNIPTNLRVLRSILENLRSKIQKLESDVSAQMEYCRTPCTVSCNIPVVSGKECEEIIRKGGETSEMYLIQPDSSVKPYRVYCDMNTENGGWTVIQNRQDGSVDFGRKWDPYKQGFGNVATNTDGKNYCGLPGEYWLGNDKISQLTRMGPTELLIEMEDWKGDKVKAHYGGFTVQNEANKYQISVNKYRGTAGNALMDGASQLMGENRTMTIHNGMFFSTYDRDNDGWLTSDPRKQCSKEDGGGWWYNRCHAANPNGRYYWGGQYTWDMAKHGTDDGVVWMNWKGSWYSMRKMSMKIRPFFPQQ
Sequence (P02679 27-437 isoform P02679-2 limits assumed): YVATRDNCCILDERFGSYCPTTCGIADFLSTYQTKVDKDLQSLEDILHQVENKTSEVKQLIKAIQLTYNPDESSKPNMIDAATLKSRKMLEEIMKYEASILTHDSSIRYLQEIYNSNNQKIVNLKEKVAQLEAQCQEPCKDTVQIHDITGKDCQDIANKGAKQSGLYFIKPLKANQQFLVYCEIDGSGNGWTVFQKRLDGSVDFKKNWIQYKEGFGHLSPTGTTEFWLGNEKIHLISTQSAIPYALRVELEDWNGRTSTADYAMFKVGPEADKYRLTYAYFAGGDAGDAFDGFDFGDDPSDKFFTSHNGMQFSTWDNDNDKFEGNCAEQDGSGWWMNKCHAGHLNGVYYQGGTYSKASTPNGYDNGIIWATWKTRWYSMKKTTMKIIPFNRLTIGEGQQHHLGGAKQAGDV
Test: Incorporation into human plasma clots in vitro
Format: biochemical
Details: control without thrombin and calcium chloride (non-specific binding)
Where no end group is shown, it is not given here.
Below: a set of entries, each annotated with reported % retained (no thrombin).
Write the answer as a number in %, unit excluded.

Field: example entries. Status: answers known.
substance: Ac-NQEQVSPYTLLKG-Hynic (also: 99mTc complex) [^99mTc-Cmpd 4]
% retained (no thrombin) / %: 0.1

substance: Ac-NQEQVSP(D-Y)TLL(D-K)βAla-Pn216 [^99mTc-Cmpd 33]
% retained (no thrombin) / %: 0.1

-- ask Quick one: % retained (no thrombin) of NQEQVSPYTLLKG-Pn216 (also: 99mTc complex) [^99mTc-Cmpd 6] ?
-- reply 4.3

-- ask Proceed to Ac-NQEQVSP(I-Y)TLLKG-Pn216 [^99mTc-Cmpd 22]
-- reply 0.3

-- ask Proceed to Ac-NQEQVSPYTLLKG-(PEG)10k-Pn216 (Ac-NQEQVSPYTLLKG-{PEG 10k-Pn216}; also: 99mTc complex) [^99mTc-Cmpd 41]
-- reply 7.1

###

Below: a set of entries, each annotated with reported % id/g (clot).
Assay: Incorporation into clots induced in a rat model (rat inferior vena cava model)
Type: in vivo, rat (Male Wistar)
Conditions: Aged Clots: injected 60 min post-induction, sacrificed after 60 min
*1 amine or outer side, *2 acyl side, *3 side chain or, on linkers, in order; H or OH if unused. Glutaryl = O=C(CCCC(=O)[*:2])[*:1]
Write the answer as a number in % id/g, unit excluded.

substance: Ac-NQEQVSPYTLL(D-K)G-Pn216 [^99mTc-Cmpd 28]
units: % id/g
% id/g (clot): 4.5
--
substance: Z-NQEQVSP(I-Y)TLLKG-Pn216 [^99mTc-Cmpd 24]
units: % id/g
% id/g (clot): 4.1
--
substance: Cyclo-[NQEQVSPYTLLKG] (cyclo(NQEQVSPYTLLKG); also: 123I label, place not given here) [^123I-Cmpd 44]
units: % id/g
% id/g (clot): 0.5
--
substance: Ac-NQEQVSP(I-Y)TLLKG-Pn216 [^99mTc-Cmpd 22]
units: % id/g
% id/g (clot): 6.9
--
substance: Ac-NQEQVSPYTLLKG-Pn216 (also: 99mTc complex) [^99mTc-Cmpd 5]
units: % id/g
% id/g (clot): 3.6
--
substance: Pn216-CO(CH2)3CO-NQEQVSPYTLLKG-NH2 ({Pn216-Glutaryl}-NQEQVSPYTLLKG-NH2; also: 99mTc complex) [^99mTc-Cmpd 39]
units: % id/g
% id/g (clot): 2.4

-- ask Quick one: % id/g (clot) of Ac-NQQQVSPYTLLKG-Pn216 (also: 99mTc complex) [^99mTc-Cmpd 15] ?
-- reply 3.4

-- ask Proceed to Ac-NQEQVSP(D-Y)TLL(D-K)G-Pn216 [^99mTc-Cmpd 29]
-- reply 3.8

-- ask Proceed to Ac-NQEAVSPYTLLKG-Pn216 (also: 99mTc complex) [^99mTc-Cmpd 13]
-- reply 4.5

###

Experiment: Incorporation into clots induced in a rat model (rat inferior vena cava model)
Type: in vivo, rat (Male Wistar)
Conditions: Fresh Clots
code Z = not defined here
Entries whose Clot/liver is below 8 take Y; entries at or above 8 take N.

See these solved cases before continuing.
substance: Ac-NQEQVSP(D-Y)TLL(D-K)βAla-Pn216 [^99mTc-Cmpd 33]
classification: N
//
substance: Ac-NQEQVSPYTLLKG-Pn216 (also: 99mTc complex) [^99mTc-Cmpd 5]
classification: N
//
substance: (CF3)2(C6H3)-NQEQVSPYTLLKG-Pn216 ({(CF3)2(C6H3)}-NQEQVSPYTLLKG-Pn216; also: 99mTc complex) [^99mTc-Cmpd 10]
classification: Y

-- ask Clot/liver strictly < 8 for this substance? Z-NQEQVSPYAAAAG-Pn216 ({code Z}-NQEQVSPYAAAAG-Pn216; reading uncertain; also: 99mTc complex, printed as Z-NQEQVSPYAAAAG-Pn216) [^99mTc-Cmpd 42]
-- reply N

-- ask Proceed to Ac-NAEAVSPYTLLKG-Pn216 (also: 99mTc complex) [^99mTc-Cmpd 14]
-- reply Y

###

Molecular target: fibrin (in vitro human plasma clot) (Homo sapiens, UniProt P02671+P02675+P02679)
Construct: about 400 μl of human plasma containing the radiolabelled substrate; from tissue; host or cells: human plasma, clotted in vitro with added thrombin and calcium chloride
Sequence (P02671 20-644 isoform P02671-2 limits assumed): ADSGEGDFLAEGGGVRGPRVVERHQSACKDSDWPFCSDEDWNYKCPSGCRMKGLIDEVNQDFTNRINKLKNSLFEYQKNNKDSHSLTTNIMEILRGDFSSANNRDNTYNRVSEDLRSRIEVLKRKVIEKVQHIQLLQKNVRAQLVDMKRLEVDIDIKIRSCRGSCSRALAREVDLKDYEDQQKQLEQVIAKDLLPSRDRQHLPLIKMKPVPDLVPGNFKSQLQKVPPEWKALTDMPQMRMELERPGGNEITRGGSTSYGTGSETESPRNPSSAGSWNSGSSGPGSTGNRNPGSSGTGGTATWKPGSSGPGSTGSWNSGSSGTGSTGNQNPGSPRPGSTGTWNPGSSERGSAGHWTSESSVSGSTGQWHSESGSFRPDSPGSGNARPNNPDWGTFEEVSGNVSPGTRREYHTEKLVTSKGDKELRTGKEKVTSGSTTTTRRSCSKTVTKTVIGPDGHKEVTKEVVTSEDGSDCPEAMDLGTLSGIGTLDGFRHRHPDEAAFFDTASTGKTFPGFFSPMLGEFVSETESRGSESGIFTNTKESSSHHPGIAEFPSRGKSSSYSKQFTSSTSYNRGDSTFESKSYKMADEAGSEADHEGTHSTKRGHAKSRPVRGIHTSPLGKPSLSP
Sequence (P02675 45-491 limits assumed): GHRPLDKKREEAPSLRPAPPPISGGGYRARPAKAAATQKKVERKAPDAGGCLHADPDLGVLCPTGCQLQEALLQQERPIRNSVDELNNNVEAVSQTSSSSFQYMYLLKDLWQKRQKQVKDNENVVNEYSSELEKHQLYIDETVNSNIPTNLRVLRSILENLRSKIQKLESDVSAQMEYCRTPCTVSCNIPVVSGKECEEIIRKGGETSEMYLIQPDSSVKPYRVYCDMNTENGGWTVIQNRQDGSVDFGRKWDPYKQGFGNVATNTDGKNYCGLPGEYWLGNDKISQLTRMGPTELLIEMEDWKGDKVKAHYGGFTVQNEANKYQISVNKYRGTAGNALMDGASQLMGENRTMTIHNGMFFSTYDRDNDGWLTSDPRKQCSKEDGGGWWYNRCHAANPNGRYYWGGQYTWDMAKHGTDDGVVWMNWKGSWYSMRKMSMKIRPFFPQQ
Sequence (P02679 27-437 isoform P02679-2 limits assumed): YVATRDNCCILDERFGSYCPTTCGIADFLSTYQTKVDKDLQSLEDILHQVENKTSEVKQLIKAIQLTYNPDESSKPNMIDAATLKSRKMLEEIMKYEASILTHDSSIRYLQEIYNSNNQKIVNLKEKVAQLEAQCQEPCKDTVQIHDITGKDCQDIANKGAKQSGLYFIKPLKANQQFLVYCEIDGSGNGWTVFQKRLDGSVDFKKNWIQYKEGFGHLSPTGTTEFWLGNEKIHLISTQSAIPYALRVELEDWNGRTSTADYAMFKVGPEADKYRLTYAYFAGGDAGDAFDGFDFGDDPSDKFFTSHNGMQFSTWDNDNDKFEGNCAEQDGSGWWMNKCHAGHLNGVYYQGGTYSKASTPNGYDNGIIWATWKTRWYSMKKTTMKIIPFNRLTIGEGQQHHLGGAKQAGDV
Assay: Incorporation into human plasma clots in vitro
Assay type: biochemical
Conditions: human plasma clot, with thrombin, 60 minutes, ca. 20° C.
*1 amine or outer side, *2 acyl side, *3 side chain or, on linkers, in order; H or OH if unused. The star is where a group is joined. Adamantane1carbonyl = O=C(C12CC3CC(CC(C3)C1)C2)*; Glutaryl = O=C(CCCC(=O)[*:2])[*:1]
Entries whose % retained (with thrombin) is below 40% take Yes; entries at or above 40% take No.

substance: Pn44-CO(CH2)3CO-NQEQVSPYTLLKG-NH2 ({Pn44-Glutaryl}-NQEQVSPYTLLKG-NH2; also: 99mTc complex) [^99mTc-Cmpd 38]
classification: Yes
//
substance: Ac-NQEQVG-Pn44 [^99mTc-Cmpd 17]
classification: No
//
substance: Fmoc-NQEQVSP(I-Y)TLLKG-Pn216 [^99mTc-Cmpd 26]
classification: No
//
substance: Ac-NQEQVSPYTLLKG-NH2 [^123I-Cmpd 2]
classification: Yes
//
substance: Ac-NQEAVSPYTLLKG-Pn216 (also: 99mTc complex) [^99mTc-Cmpd 13]
classification: No
//
substance: Ac-NQEQVSP(D-Y)TLL(D-K)βAla-Pn216 [^99mTc-Cmpd 33]
classification: No
//
substance: Ac-NQEQVSPYTLLKG-(PEG)10k-Pn216 (Ac-NQEQVSPYTLLKG-{PEG 10k-Pn216}; also: 99mTc complex) [^99mTc-Cmpd 41]
classification: No
//
substance: Ac-(D-N)QEQVSP(D-Y)TLL(D-K)G-Pn216 [^99mTc-Cmpd 32]
classification: Yes

-- ask % retained (with thrombin) strictly < 40% for this substance? Ac-LEFDTQSKNILG-Pn216 (also: 99mTc complex) [^99mTc-Cmpd 47]
-- reply No

-- ask Proceed to Cyclo-[NQEQVSPYTLLKG] (cyclo(NQEQVSPYTLLKG); also: 123I label, place not given here) [^123I-Cmpd 44]
-- reply Yes

-- ask Proceed to Ac-NQQQVSPYTLLKG-Pn216 (also: 99mTc complex) [^99mTc-Cmpd 15]
-- reply No

-- ask Proceed to Ac-NQEQVSPYTLL(D-K)G-Pn216 [^99mTc-Cmpd 28]
-- reply No

-- ask Proceed to Adamantoyl-NQEQVSPYTLLKG-Pn216 (Adamantane1carbonyl-NQEQVSPYTLLKG-Pn216; also: 99mTc complex) [^99mTc-Cmpd 11]
-- reply No

-- ask Proceed to Ac-NQEQVSP(D-Y)TLL(D-K)G-Pn216 [^99mTc-Cmpd 29]
-- reply Yes

-- ask Proceed to Ac-NQEQVSPLTLLKG-Pn216 (also: 99mTc complex) [^99mTc-Cmpd 19]
-- reply No

-- ask Proceed to Ac-NQEQVSPYTLLKG-Pn216 (also: 99mTc complex) [^99mTc-Cmpd 5]
-- reply Yes
